assay: A CellTox Green Cytotoxicity Assay to monitor cytotoxicity in HepG2 cells - 40 hour (AID 1224879); settings: CellTox Green fluorescence; series mostly up to 76.8 µM; further: nearly all actives have a fitted effect of over 40% in size
Records with an inconclusive call do not appear. Active and inactive are the calls of the source. The call rests on the fitted dose curve; in most records, active means well fitted activation curve with a large enough effect in the repeat runs; inconclusive means weak or mixed curves; inactive means flat fitted curve, though single readings scatter.
Possible outcomes: 1 (yes) = active, 0 (no) = inactive

compound: CCCCNc1ccc(C(=O)OCCOCCOCCOCCOCCOCCOCCOCCOCCOC)cc1
cat: 0 (no)
//
compound: CCCn1cnc2c1c(=O)n(CCCCC(C)=O)c(=O)n2C
cat: 0 (no)
//
compound: C=CC1CC2C=CC1C2 (configuration not stated)
cat: 0 (no)
//
compound: CN(C)CCN(Cc1ccc(Cl)cc1)c1ccccn1
cat: 0 (no)
//
compound: CN1Cc2cc(C(=O)N3CCC(C4CCNCC4)CC3)ccc2NC(CC(=O)O)C1=O (configuration not stated)
cat: 0 (no)
//
compound: CN(C)c1ccc(C(c2ccccc2)c2ccc(N(C)C)cc2)cc1
cat: 0 (no)
//
compound: NS(=O)(=O)c1ccc(N2CCCCS2(=O)=O)cc1
cat: 0 (no)
//
compound: CC(=O)c1cccc([N+](=O)[O-])c1
cat: 0 (no)
//
compound: CCCCCCCCCCCCCCOS(=O)(=O)O
cat: 1 (yes)
//
compound: CC(C)(C)OCC1CO1 (configuration not stated)
cat: 0 (no)
//
compound: COc1ccc(C)cc1[N+](=O)[O-]
cat: 0 (no)
//
compound: CCCCC(CC)CN1C(=O)C2C3C=CC(C3)C2C1=O (configuration not stated)
cat: 0 (no)
//
compound: CCCOC(C(=O)OC1CCN(C)CC1)(c1ccccc1)c1ccccc1
cat: 1 (yes)
//
compound: NCCCN1CCOCC1
cat: 0 (no)
//
compound: CCN(CC)c1ccc(C(=C2C=CC(=[N+](CC)CC)C=C2)c2cc(S(=O)(=O)O)ccc2S(=O)(=O)[O-])cc1
cat: 0 (no)
//
compound: CCC(C)O (configuration not stated)
cat: 0 (no)
//
compound: C=CC(=O)OCCOc1ccccc1
cat: 0 (no)

* * *

biological target: Cytochrome P450 2C19 (Homo sapiens) (UniProt P33261); test: Cytochrome P450 Family 2 Subfamily C Member 19 (CYP2C19) small molecule antagonists: luciferase reporter qHTS assay (AID 1671197); settings: P450-Glo CYP2C19 enzyme, luciferin luminescence, 1 h; series mostly up to 52.9 µM; further: nearly all actives have a fitted effect of over 65% in size
Sequence (P33261 whole entry, looked up): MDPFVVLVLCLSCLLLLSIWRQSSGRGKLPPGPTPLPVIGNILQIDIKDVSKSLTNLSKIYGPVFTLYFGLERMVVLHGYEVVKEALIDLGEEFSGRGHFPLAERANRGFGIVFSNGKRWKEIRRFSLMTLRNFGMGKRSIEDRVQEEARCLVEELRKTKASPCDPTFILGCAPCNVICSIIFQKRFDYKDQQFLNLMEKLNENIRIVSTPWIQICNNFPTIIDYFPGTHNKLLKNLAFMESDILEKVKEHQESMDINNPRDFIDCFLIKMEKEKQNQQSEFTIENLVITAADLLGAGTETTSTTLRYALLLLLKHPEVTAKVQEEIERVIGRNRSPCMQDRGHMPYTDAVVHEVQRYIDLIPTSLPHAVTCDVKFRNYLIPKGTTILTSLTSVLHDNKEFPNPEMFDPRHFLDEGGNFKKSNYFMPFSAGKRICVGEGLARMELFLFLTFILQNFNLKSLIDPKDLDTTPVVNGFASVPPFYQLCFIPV
Results filed as inconclusive are left out. The source made the active and inactive calls. Calls come from the whole dose curve; as a rule, active = well fitted inhibition curve with a large enough effect in the repeat runs; inconclusive = weak or mixed curves; inactive = no such curve, though single readings can be large or run the other way.
Possible outcomes: Yes = active, No = inactive

molecule: NCc1ccccc1Sc1ccccc1CO
cat: Yes
--
molecule: COc1cc2c(cc1OC)C(C(C(=O)N(CCc1ccc(OC)c(OC)c1OC)CCc1ccc(OC)c(OC)c1OC)c1ccccc1)=NCC2 (stereo not given)
cat: Yes
--
molecule: COc1ccc(C(=O)Nc2nc3ccccc3c(NCc3ccccc3)c2C#N)cc1
cat: Yes
--
molecule: CNC(=O)CN(CCN(CCN(CC(=O)[O-])CC(=O)NC)CC(=O)[O-])CC(=O)[O-].O.[Gd+3]
cat: No
--
molecule: CCN(CC)c1ccc(C(=C2C=CC(=[N+](CC)CC)C=C2)c2cc(S(=O)(=O)O)ccc2S(=O)(=O)[O-])cc1
cat: Yes

* * *

assay: Caspase-3/7 induction in HepG2 cells by small molecules, qHTS assay (AID 1346978); conditions: HepG2 caspase-3/7 activation, Caspase-Glo luminescence, 17 h; series mostly up to 92.4 µM; further: on the % scale 0 is the no-effect control and ±100 the full control effect; nearly all actives have a fitted effect of over 15% in size
Records with an inconclusive call do not appear. Calls of active or inactive are those of the source. Calls follow the shape of the dose curve; as a rule, active = well fitted activation curve with a large enough effect in the repeat runs; inconclusive = weak or mixed curves; inactive = flat fitted curve, though single readings scatter.
quantity_kind: caspase activation

molecule: COc1ccnc(CS(=O)c2nc3ccc(OC(F)F)cc3[nH]2)c1OC (configuration not stated)
measured_value: inactive

molecule: COS(=O)(=O)C(F)(F)F
measured_value: inactive

molecule: Nc1ccc(S(=O)(=O)Nc2ccccc2)cc1
measured_value: inactive

molecule: Cc1ncc(CO)c(C=O)c1O
measured_value: inactive

molecule: CCC(CC)Nc1ccc(C)c(C)c1
measured_value: inactive

molecule: CCC(=O)O[C@]1(C(=O)CCl)[C@@H](C)C[C@H]2[C@@H]3CCC4=CC(=O)C=C[C@]4(C)[C@@]3(F)[C@@H](O)C[C@@]21C
measured_value: inactive

molecule: C#Cc1cccc(Nc2ncnc3cc(OCCOC)c(OCCOC)cc23)c1
measured_value: inactive

molecule: NCC(=O)O
measured_value: -0.745% [at 19 µM] (inactive)

molecule: CC(C)C[C@H]1C(=O)N2CCC[C@H]2[C@]2(O)O[C@](NC(=O)[C@@H]3C=C4c5cccc6[nH]c(Br)c(c56)C[C@H]4N(C)C3)(C(C)C)C(=O)N12
measured_value: inactive

molecule: CN(C)c1ccc(/C=C/c2ccc([N+](=O)[O-])cc2)cc1
measured_value: 0.696% [at 8.39 µM] (inactive)

molecule: CC[N+]1(CC)CCC(=C(c2ccccc2)c2ccccc2)C1C (configuration not stated)
measured_value: inactive

molecule: CCCCC/C=C\C/C=C\CCCCCCCC(=O)NC(C)c1ccccc1 (configuration not stated)
measured_value: inactive

* * *

target: Glucocorticoid receptor (Homo sapiens); assay: qHTS assay to identify small molecule antagonists of the glucocorticoid receptor (GR) signaling pathway (AID 720692); details: GR-bla HeLa, beta-lactamase FRET ratio, dexamethasone-stimulated, 18 h; series mostly up to 58.5 µM
Results filed as inconclusive are left out. Activity calls are given as the source filed them. Calls follow the shape of the dose curve; as a rule, active = well fitted inhibition curve with a large enough effect in the signal ratio in the repeat runs (not every such curve was filed as active); inconclusive = weak or mixed curves, or effect the other way; inactive = no such curve, though single readings can be large or run the other way; the % refers to the signal ratio.
Possible outcomes: true (1) (active), false (0) (inactive)

compound: CCOC(=O)c1cccnc1
cat: false (0)
//
compound: Brc1c2ccccc2cc2ccccc12
cat: false (0)
//
compound: c1cc(CCCc2ccncc2)ccn1
cat: false (0)
//
compound: O=[N+]([O-])c1ccc2[nH]ncc2c1
cat: false (0)
//
compound: CCCCC(CC)COC(=O)CCCCCCCCC(=O)OCC(CC)CCCC (stereo not drawn)
cat: false (0)
//
compound: O=[N+]([O-])c1cccc(S(=O)(=O)O)c1
cat: false (0)
//
compound: CC(C)Nc1ccc(NC(C)C)c2c1C(=O)c1ccccc1C2=O
cat: false (0)
//
compound: C[Si](C)(CCCN)O[Si](C)(C)CCCN
cat: false (0)
//
compound: COCC(C)OC(C)=O (stereo not drawn)
cat: false (0)
//
compound: O=S(=O)(Oc1ccc(Cl)cc1)c1ccccc1
cat: false (0)
//
compound: C/C=C/C=C/CO
cat: false (0)
//
compound: Cc1cccc(C)c1NC(=O)CN(CC(=O)O)CC(=O)O
cat: false (0)
//
compound: Cc1cccc(C)c1OCC(=O)N[C@@H](Cc1ccccc1)[C@@H](O)C[C@H](Cc1ccccc1)NC(=O)[C@H](C(C)C)N1CCCNC1=O
cat: true (1)

* * *

assay: qHTS assay to identify small molecule agonists of the RXR signaling pathway - cell viability counter screen (AID 1159529); conditions: RXR-alpha-bla HEK293T viability, CellTiter-Glo, 16 h; series mostly up to 76.8 µM;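 further: HEK 293T cells carrying an RXR-alpha UAS beta-lactamase reporter; on the % scale 0 is the no-effect control and ±100 the full control effect; nearly all actives have a fitted effect of over 50% in size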
Results filed as inconclusive are left out. Active and inactive are the calls of the source. Calls come from the whole dose curve; as a rule, active = well fitted cell-killing curve with a large enough effect in the repeat runs; inconclusive = weak or mixed curves, or effect the other way; inactive = no such curve, though single readings can be large or run the other way.

molecule: CN(C)c1ccc(/C=C/c2ccc([N+](=O)[O-])cc2)cc1
activity change, negative = cytotoxicity: -5.22% [at 6.97 µM] (inactive)
//
molecule: O=C(O)CNCC(=O)O
activity change, negative = cytotoxicity: 3.65% [at 6.97 µM] (inactive)
//
molecule: NC(N)=NCCC[C@H](N)C(=O)O
activity change, negative = cytotoxicity: 6.89% [at 6.97 µM] (inactive)
//
molecule: NCC(=O)O
activity change, negative = cytotoxicity: 4.74% [at 15.8 µM] (inactive)
//
molecule: CC(CSC(=O)c1ccccc1)C(=O)N1C[C@@H](Sc2ccccc2)C[C@H]1C(=O)O (stereo partly specified)
activity change, negative = cytotoxicity: -1.14% [at 15.8 µM] (inactive)
//
molecule: Cc1[nH]c(C)c(Cl)c(=O)c1Cl
activity change, negative = cytotoxicity: 7.97% [at 15.8 µM] (inactive)

* * *

assay: qHTS assay for identifying genotoxic compounds that show differential cytotoxicity against isogenic chicken DT40 cell lines with known DNA damage response pathways - Rev3 mutant cell line (AID 743014); conditions: chicken DT40 Rev3-/- viability, CellTiter-Glo, 40 h; series mostly up to 68.4 µM; further: nearly all actives have a fitted effect of over 55% in size
Inconclusive results are not listed. Calls of active or inactive are those of the source. Calls come from the whole dose curve; as a rule, active = well fitted cell-killing curve with a large enough effect in the repeat runs; inconclusive = weak or mixed curves, or effect the other way; inactive = no such curve, though single readings can be large or run the other way.
Possible outcomes: TRUE = active, FALSE = inactive

compound: COc1ccc(C)cc1[N+](=O)[O-]
cat: FALSE
//
compound: NC(=O)C(c1ccccc1)(c1ccccc1)[C@@H]1CCN(CCc2ccc3c(c2)CCO3)C1
cat: TRUE
//
compound: Cc1cccc(C)c1OCC(=O)N[C@@H](Cc1ccccc1)[C@@H](O)C[C@H](Cc1ccccc1)NC(=O)[C@H](C(C)C)N1CCCNC1=O
cat: TRUE
//
compound: CCCn1cnc2c1c(=O)n(CCCCC(C)=O)c(=O)n2C
cat: FALSE
//
compound: COc1cc(Cl)ccc1Oc1ccc(Cl)cc1Cl
cat: FALSE
//
compound: ClCCOCCOCCCl
cat: FALSE
//
compound: CC/C=C\CCOC(=O)CC
cat: FALSE
//
compound: COc1ccc(C(=O)N2CCN(CC(=O)N3CCOCC3)CC2)cc1
cat: FALSE
//
compound: CC1=CC=C(C(C)C)CC1
cat: FALSE
//
compound: CCCCC
cat: FALSE
//
compound: Clc1ccc2c(c1)CCc1cccnc1C2=C1CCNCC1
cat: TRUE
//
compound: COc1ccc(C(=O)c2ccc(OC)cc2O)c(O)c1
cat: FALSE
//
compound: CC[N+]1(CC)CCC(=C(c2ccccc2)c2ccccc2)C1C (stereo not given)
cat: TRUE
//
compound: COc1cc(C(=O)OCCCN2CCCN(CCCOC(=O)c3cc(OC)c(OC)c(OC)c3)CC2)cc(OC)c1OC
cat: TRUE
//
compound: CC(C)(C)Cl
cat: FALSE
//
compound: C/C(=C(\CCOP(=O)(O)O)SC(=O)c1ccccc1)N(C=O)Cc1cnc(C)nc1N
cat: FALSE
//
compound: C[C@@H]1C[C@H]2O[C@@]3(O[C@@H]2C(C)(C)O)[C@H](O)[C@@]2(C)[C@@H]4CC[C@H]5C(C)(C)[C@@H](O[C@@H]6OC[C@@H](O)[C@H](O)[C@H]6O)CC[C@@]56C[C@@]46CC[C@]2(C)[C@@H]13
cat: FALSE
//
compound: C=CC(=O)OCCOc1ccccc1
cat: TRUE
//
compound: CC(=O)NO
cat: FALSE
//
compound: CCCCCCCC/C=C\CCCCCCCC(=O)OCC
cat: FALSE
//
compound: CCCCCCCCCCCc1ccccc1
cat: TRUE
//
compound: COC(=O)c1ccc(I)cc1S(=O)(=O)NC(=O)Nc1nc(C)nc(OC)n1
cat: FALSE
//
compound: COc1cccc(N(C)C(=S)Oc2ccc3c(c2)CCCC3)n1
cat: TRUE
//
compound: C=C1[C@H]2CC[C@@H]3[C@H]2C(C)(C)CCC[C@]13C
cat: FALSE
//
compound: CCCCCCCCCOS(=O)(=O)O
cat: FALSE
